System: 15PC3 cells
Assay: MTS assay of proliferating viable cells
Assay type: cell-based, human
Details: 48 hours (Table 7, FIG. 5); read-out: Proliferation IC50 (48 hours)
Oligonucleotides are written 5' to 3', each unit as a sugar letter and its base; * is a phosphorothioate linkage, no mark a phosphodiester; rarer units and linkages stand in square brackets, end groups in braces. Plain capitals give the bases only. l = locked nucleic acid (LNA); [5mC] = 5-methylcytosine; d = 2'-deoxy (DNA)
Catalogue of pIC50 readings, one per entry.
Field pIC50 (float): negative decimal logarithm of the concentration in molar.

• 5′-^MeCsTs^MeCsAsastscscsastsgsgs^MeCsAsGsc-3′ (l[5mC]*lT*l[5mC]*lA*dA*dT*dC*dC*dA*dT*dG*dG*l[5mC]*lA*lG*dC) [SEQ ID NO. 2] = 8.30
• TsGsTsGscstsaststscstsgstsgsAsAsTsT (lT*lG*lT*lG*dC*dT*dA*dT*dT*dC*dT*dG*dT*dG*lA*lA*lT*lT) [SEQ ID NO. 21] = 7.60

Lab note: measured pIC50 of 5′-Gs^MeCsAs^MeCsasgststsgsasasas^MeCsAsTsc-3′ (lG*l[5mC]*lA*l[5mC]*dA*dG*dT*dT*dG*dA*dA*dA*l[5mC]*lA*lT*dC) [SEQ ID NO. 22] was 7.60

====

System: 15PC3 cells
Assay: Caspase 3/7 activity (apoptosis) in transfected 15PC3 cells
Format: cell-based, human
Conditions: 5 nM, 24 hours (Table 7, FIG. 3)
Oligonucleotides are written 5' to 3', each unit as a sugar letter and its base; * is a phosphorothioate linkage, no mark a phosphodiester; rarer units and linkages stand in square brackets, end groups in braces. Plain capitals give the bases only. l = locked nucleic acid (LNA); [5mC] = 5-methylcytosine; d = 2'-deoxy (DNA)
observable: Apoptosis At 5 nM, 24 hours

• 5′-Gs^MeCsAs^MeCsasgststsgsasasas^MeCsAsTsc-3′ (lG*l[5mC]*lA*l[5mC]*dA*dG*dT*dT*dG*dA*dA*dA*l[5mC]*lA*lT*dC) [SEQ ID NO. 22] = No activity
• 5′-Gs^MeCsAsGstsgsgsastsgsasasGs^MeCs^MeCsA-3′ (lG*l[5mC]*lA*lG*dT*dG*dG*dA*dT*dG*dA*dA*lG*l[5mC]*l[5mC]*lA) [SEQ ID NO. 23, reference compound] = 2-fold
• 5′-^MeCsTs^MeCsAsastscscsastsgsgs^MeCsAsGsc-3′ (l[5mC]*lT*l[5mC]*lA*dA*dT*dC*dC*dA*dT*dG*dG*l[5mC]*lA*lG*dC) [SEQ ID NO. 2] = 3.5-fold
• TsGsTsGscstsaststscstsgstsgsAsAsTsT (lT*lG*lT*lG*dC*dT*dA*dT*dT*dC*dT*dG*dT*dG*lA*lA*lT*lT) [SEQ ID NO. 21] = No activity

====

Test system: 15PC3 cells
Assay: MTS assay of proliferating viable cells
Format: cell-based, human
Conditions: 48 hours; transfected 15PC3 cells (Table 5); read-out: Inhibition of proliferation, MTS assay IC50 (48 hours)
Oligonucleotides are written 5' to 3', each unit as a sugar letter and its base; * is a phosphorothioate linkage, no mark a phosphodiester; rarer units and linkages stand in square brackets, end groups in braces. Plain capitals give the bases only. l = locked nucleic acid (LNA); [5mC] = 5-methylcytosine; d = 2'-deoxy (DNA)
Entries and their IC50
Report the value in nM with no unit label.

* ^MeCsGs^MeCsAsgsaststsasgsasasAs^MeCs^MeCst (l[5mC]*lG*l[5mC]*lA*dG*dA*dT*dT*dA*dG*dA*dA*lA*l[5mC]*l[5mC]*dT) [SEQ ID NO. 24, negative control oligonucleotide, design 4-8-3-1] | 86.9

The substance identified as 5′-^MeCsTs^MeCsAsastscscsastsgsgs^MeCsAsGsc-3′ (l[5mC]*lT*l[5mC]*lA*dA*dT*dC*dC*dA*dT*dG*dG*l[5mC]*lA*lG*dC) [SEQ ID NO. 2] registered its IC50 at 4.9

====

Below, each of the substances is paired with its reported pIC50 value.
Test system: human Survivin RNA
Test: Survivin mRNA knockdown in transfected 15PC3 cells by real-time PCR
Assay type: cell-based
Details: Survivin mRNA down-regulation relative to mock, normalised to GAPDH, standard deviation in brackets, at least three experiments
Oligonucleotides are written 5' to 3', each unit as a sugar letter and its base; * is a phosphorothioate linkage, no mark a phosphodiester; rarer units and linkages stand in square brackets, end groups in braces. Plain capitals give the bases only. l = locked nucleic acid (LNA); [5mC] = 5-methylcytosine; d = 2'-deoxy (DNA)
Here pIC50 is given on a logarithmic scale as minus log10 of the concentration in mol/L.

* 5′-^MeCsTs^MeCsAsastscscsastsgsgs^MeCsAsGsc-3′ (l[5mC]*lT*l[5mC]*lA*dA*dT*dC*dC*dA*dT*dG*dG*l[5mC]*lA*lG*dC) [SEQ ID NO. 2] | 8.54

Moving on to the next substance.
Measured on human Survivin RNA, 5′-Gs^MeCsAsGstsgsgsastsgsasasGs^MeCs^MeCsA-3′ (lG*l[5mC]*lA*lG*dT*dG*dG*dA*dT*dG*dA*dA*lG*l[5mC]*l[5mC]*lA) [SEQ ID NO. 23, reference compound] has a documented pIC50 of 8.60

Where do the numbers come from? From patent US8173428B2.
